// provenance: patent US20070161581A1

- Test system: MRSA-HR
- TEST PROTOCOL: Antimicrobial activity, MIC by agar plate dilution method against MRSA-HR
- Type: cell-based, methicillin resistant Staphylococcus aureus
- COND: Staphylococcus aureus, read-out: minimal inhibitory concentration (MIC) against MRSA-HR
Each entry below carries its recorded MIC.

COMPOUND	MIC
NCC[C@H](O)C(=O)NC1C[C@H](N)C(O[C@H]2OC(CN)CCC2N)C(O)[C@H]1O[C@H]1OC(CO)[C@@H](O)C(N)C1O (some centres unmarked) [Example 13, 5-Epiarbekacin]	≤ 8 µg/mL
NCC[C@H](O)C(=O)NC1C[C@H](N)C(O[C@H]2OC(CN)C=CC2N)C(F)[C@H]1O[C@H]1OC(CO)[C@@H](O)C(N)C1O (some centres unmarked) [Example 45]	≤ 8 µg/mL
NCC[C@H](O)C(=O)N[C@@H]1C[C@H](N)[C@@H](O[C@H]2O[C@H](CN)CC[C@H]2N)[C@H](O)[C@H]1O[C@H]1O[C@H](CO)[C@@H](O)[C@H](N)[C@H]1O [arbekacin, reference compound]	64 µg/mL
NCC1CCC(N)[C@@H](OC2C(O)[C@@H](O[C@H]3OC(CO)[C@H](O)C(N)C3O)C(NC(=O)[C@@H](O)CN)C[C@@H]2N)O1 (some centres unmarked) [Example 9]	≤ 8 µg/mL
NCC[C@H](O)C(=O)NC1C[C@H](N)C(O[C@H]2OC(CN)C=CC2N)C(F)[C@H]1O[C@H]1OC(CO)[C@H](O)C(N)C1O (some centres unmarked) [Example 52]	≤ 8 µg/mL
